Test system: UACC-257 melanoma
Test: NCI-60 one-dose screen, 48 h
Settings: 10 µM unless noted
Compounds without any hit were thinned out: in the full panel of roughly 83,000, 20% have a hit. Active and inactive are the calls of the source. How the source made its calls: active means growth percent below 10; inactive means the rest.
Classes to choose from: True for active, False for inactive

Incoming: Lab log entry: CC(=O)NC(CCc1ccc(Cl)c(Cl)c1)c1cccc(O)c(=O)c1 (centres undefined) — outcome as called in the assay?
Outgoing: True

Incoming: Lab log entry: `Cc1cccc(C)c1NC(=S)/N=C\c1c(O)[nH]c(=O)[nH]c1=O` — outcome as called in the assay?
Outgoing: False

Incoming: Lab log entry: CC(C)N1CC(=O)N2CSCC2C1=O (centres undefined) — outcome as called in the assay?
Outgoing: False

Incoming: Lab log entry: `COc1nc(Nc2cccc(C(F)(F)F)c2)nc(OC)n1` — outcome as called in the assay?
Outgoing: False

Incoming: Lab log entry: `CCOC(=O)CSCCC#N` — outcome as called in the assay?
Outgoing: False

Incoming: Lab log entry: `Nc1cc2ccccc2c(O)c1O` — outcome as called in the assay?
Outgoing: False

Incoming: Lab log entry: `Cn1c(=O)[nH]c2ccccc2c1=O` — outcome as called in the assay?
Outgoing: False

Incoming: Lab log entry: `CCNCC(C)(C)O` — outcome as called in the assay?
Outgoing: False

Incoming: Lab log entry: `O=c1[nH]c(=O)c2cc(Cl)cc(Cl)c2[nH]1` — outcome as called in the assay?
Outgoing: False

Incoming: Lab log entry: `C=C(C)COc1ccc(C(C)(C)C)cc1` — outcome as called in the assay?
Outgoing: False

Incoming: Lab log entry: `NC(=S)N/N=C/c1ccc(Cl)cc1` — outcome as called in the assay?
Outgoing: False

Incoming: Lab log entry: `CCNC(=O)OCCc1c2ccccc2nc2ccccc12` — outcome as called in the assay?
Outgoing: False

Incoming: Lab log entry: `CCN(C(=O)Nc1ccccc1Cl)c1ccccc1` — outcome as called in the assay?
Outgoing: False

Incoming: Lab log entry: `O=C(NCCc1ccccc1)/C(=C\c1ccc(Cl)cc1Cl)NC(=O)c1ccccc1` — outcome as called in the assay?
Outgoing: False

Incoming: Lab log entry: `O=C(O)c1ccc([N+](=O)[O-])cc1S(=O)(=O)O` — outcome as called in the assay?
Outgoing: False

Incoming: Lab log entry: `CC1(C)CC(=O)C=C(N)C1` — outcome as called in the assay?
Outgoing: False

Incoming: Lab log entry: `NNc1ncnc2nc[nH]c12` — outcome as called in the assay?
Outgoing: False

Incoming: Lab log entry: CC(C)C1CCC(C)C(O)C1 (centres undefined) — outcome as called in the assay?
Outgoing: False

Incoming: Lab log entry: N#CCCN1C(=O)CCC1C(=O)O (centres undefined) — outcome as called in the assay?
Outgoing: False

====

System: TK-10 renal
Test: NCI-60 one-dose screen, 48 h
Conditions: 10 µM unless noted
About 83,000 compounds went through this panel and 20% of them were active in at least one assay; those are over-represented in the sample as a whole. Active and inactive are the calls of the source. The calls were made as follows: active = growth percent below 10; inactive = the rest.
Classes to choose from: YES (active), NO (inactive)

Incoming: Lab log entry: `NNC(=O)c1ccccc1N` — outcome as called in the assay?
Outgoing: NO

Incoming: Lab log entry: `Nc1c(Br)cc(O)c2c1C(=O)c1ccccc1C2=O` — outcome as called in the assay?
Outgoing: NO

Incoming: Lab log entry: `Cc1cccc(-[n+]2noc(N)n2)c1` — outcome as called in the assay?
Outgoing: NO

Incoming: Lab log entry: `S=c1nc2[nH]c3ccccc3c2n[nH]1` — outcome as called in the assay?
Outgoing: NO

Incoming: Lab log entry: CC(=O)C1C(=O)C(=O)N(c2cccc([N+](=O)[O-])c2)C1=O (stereo not given) — outcome as called in the assay?
Outgoing: NO

Incoming: Lab log entry: `Cc1ccc(C)c(CCO)c1` — outcome as called in the assay?
Outgoing: NO

Incoming: Lab log entry: CC(=O)OC/C(C)=C\CC(C)COC(C)=O (stereo not given) — outcome as called in the assay?
Outgoing: NO

Incoming: Lab log entry: `CC(=O)N(CCCCCCN(C(C)=O)C(C)=O)C(C)=O` — outcome as called in the assay?
Outgoing: NO

Incoming: Lab log entry: `COC(=O)C1=C(C)C(=O)CC1` — outcome as called in the assay?
Outgoing: NO

Incoming: Lab log entry: `Cc1c(Cl)cccc1N=C=S` — outcome as called in the assay?
Outgoing: NO

Incoming: Lab log entry: COc1ccc(C2CC(c3ccccc3)=Nc3ccccc3S2)cc1 (stereo not given) — outcome as called in the assay?
Outgoing: NO

Incoming: Lab log entry: C=CC(=O)OC1CCC(C(C)(C)CC)CC1 (stereo not given) — outcome as called in the assay?
Outgoing: NO

Incoming: Lab log entry: `Nc1cc2c(cc1Cl)C(=O)c1ccccc1C2=O` — outcome as called in the assay?
Outgoing: NO

Incoming: Lab log entry: `CN(CCCN(C)CCC1CCCCC1)CCC1CCCCC1` — outcome as called in the assay?
Outgoing: NO

Incoming: Lab log entry: `CC(=O)N(C)N=Nc1ccc(C)cc1` — outcome as called in the assay?
Outgoing: NO

Incoming: Lab log entry: COC1=C(OC)C(=O)C(SC/C=C(\C)CCCC(C)CCCC(C)CCCC(C)C)=CC1=O (stereo not given) — outcome as called in the assay?
Outgoing: NO

Incoming: Lab log entry: `NC(CCl)=NCC12CC3CC(CC(C3)C1)C2` — outcome as called in the assay?
Outgoing: YES

Incoming: Lab log entry: CCC(C)C1CCC(O)CC1 (stereo not given) — outcome as called in the assay?
Outgoing: NO

Incoming: Lab log entry: `Cc1ccc(C2CCCCC2)cc1Br` — outcome as called in the assay?
Outgoing: NO

Incoming: Lab log entry: OCC1OC(n2ccc3c2ncn2ncnc32)C(O)C1O (stereo not given) — outcome as called in the assay?
Outgoing: NO

Incoming: Lab log entry: `CC(CO)(CO)C(=O)O` — outcome as called in the assay?
Outgoing: NO

Incoming: Lab log entry: `O=C(OC1CCCC1)c1ccccc1Cl` — outcome as called in the assay?
Outgoing: NO

Incoming: Lab log entry: `NS(=O)(=O)c1cc(=O)[nH]c(=O)[nH]1` — outcome as called in the assay?
Outgoing: NO

Incoming: Lab log entry: `S=c1nc(-c2ccccn2)c(-c2ccccn2)n[nH]1` — outcome as called in the assay?
Outgoing: NO

Incoming: Lab log entry: `COc1cc(C(=O)NC(=S)NCc2ccncc2)cc(OC)c1OC` — outcome as called in the assay?
Outgoing: NO

Incoming: Lab log entry: `Cc1ccc2[nH]c3ccccc3c2c1` — outcome as called in the assay?
Outgoing: NO

Incoming: Lab log entry: `O=C(O)CCCCCNC(=O)OCc1ccccc1` — outcome as called in the assay?
Outgoing: NO

Incoming: Lab log entry: `Nc1ccc2ccccc2c1-c1c(N)ccc2ccccc12` — outcome as called in the assay?
Outgoing: NO

Incoming: Lab log entry: `CCN(C(=O)Nc1ccccc1Cl)c1ccccc1` — outcome as called in the assay?
Outgoing: NO

Incoming: Lab log entry: `Cc1onc(-c2ccccc2Cl)c1C(=O)Cl` — outcome as called in the assay?
Outgoing: NO

Incoming: Lab log entry: `CCOc1ccc(C(=O)NCC(C)C)cc1` — outcome as called in the assay?
Outgoing: NO

Incoming: Lab log entry: `NNC(=O)CCCCl` — outcome as called in the assay?
Outgoing: NO

Incoming: Lab log entry: CS(=O)CC(=N\O)/C(CS(C)=O)=N\O (stereo not given) — outcome as called in the assay?
Outgoing: NO

Incoming: Lab log entry: `S=C(Sc1ccc(Cl)cc1)Sc1ccc(Cl)cc1` — outcome as called in the assay?
Outgoing: YES

Incoming: Lab log entry: `COc1ccc(-c2csc(NC(=O)Nc3nc(-c4ccc(OC)cc4)cs3)n2)cc1` — outcome as called in the assay?
Outgoing: NO

Incoming: Lab log entry: `COc1cc(CC#N)c([N+](=O)[O-])cc1OC` — outcome as called in the assay?
Outgoing: NO

Incoming: Lab log entry: CC1(C)C2CCC1(C)C1(C2)OCCS1 (stereo not given) — outcome as called in the assay?
Outgoing: NO

Incoming: Lab log entry: `CCCCN(C(=O)CC)c1ccccc1` — outcome as called in the assay?
Outgoing: NO

Incoming: Lab log entry: `O=C(O)Cc1ccc(Cl)cc1` — outcome as called in the assay?
Outgoing: NO

Incoming: Lab log entry: `CC1(C)OC(=O)CC1=O` — outcome as called in the assay?
Outgoing: NO

Incoming: Lab log entry: `C1=NCCc2ccccc21` — outcome as called in the assay?
Outgoing: NO

Incoming: Lab log entry: COC1CC(OC(=O)c2ccc([N+](=O)[O-])cc2)C(COC(=O)c2ccc([N+](=O)[O-])cc2)O1 (stereo not given) — outcome as called in the assay?
Outgoing: NO

Incoming: Lab log entry: `Cc1nc(C)c(C(=O)O)cc1C(=O)O` — outcome as called in the assay?
Outgoing: NO

Incoming: Lab log entry: `CC(C)(CC(=O)O)CC(=O)O` — outcome as called in the assay?
Outgoing: NO

Incoming: Lab log entry: `Oc1cc2ccccc2c(-c2c(O)c(O)cc3ccccc23)c1O` — outcome as called in the assay?
Outgoing: NO
